result.type: melting point

1. CC(C)(C)OC(=O)N[C@@H](Cc1cc(F)cc(F)c1)[C@H](O)CCl : 149 °C
2. NC(=O)N(O)CC=Cc1ccoc1 : 136 to 137 °C
3. COC(=O)CN1CC(N2C(=O)c3ccccc3C2=O)C1=O (stereo unspecified) : 178 to 180 °C
4. CCCCc1c2c(nc3cc(F)ccc13)-c1cc3c(c(=O)n1C2)COC(=O)CC3(O)CC (stereo unspecified) : 235 to 236 °C
5. CCOC(=O)c1c(-c2ccncc2)[nH]c(-c2ccncc2)c1CC : 212 to 215 °C
6. CC(=O)N1CCN(Cc2cc(C)c(O)c(C)c2)CC1 : 150 to 151 °C

Turning now to a further compound:
query: What does the data say about its melting point? Entry: CC(C)(C)OC(=O)N1CCN(c2ccc(OCC3(C)CCn4cc([N+](=O)[O-])nc4O3)cc2)CC1 (stereo unspecified)
result: 208 to 209 °C
